Origin of measurements: the supplement of paper PMC6555819

# Tested on: RARa:RXR (NR concentration 270 nM, RXRa partner concentration 90 nM)
# TEST_DETAILS: PBM binding z-score (relative to random genomic background probes); higher = stronger binding; sequences stand for … in GC…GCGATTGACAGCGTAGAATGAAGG
OUTCOME_MEASURE: PBM binding z-score
Reply: number alone, nothing else.

**Query** If you can, please state the reported PBM binding z-score value of "ACTTACGGGCCAACGAGGTTATAGCACGCGTATA" .
**Result** 1.16

**Query** Now try "TCTTGTAGATCAAAGGTTAATAAAGCCGAAGCCT" .
**Result** 2.43

**Query** Now try "ATCGAAAGGTCGACGAGGTGAGTCTACACCGTTT" .
**Result** 3.84

**Query** And the next one, "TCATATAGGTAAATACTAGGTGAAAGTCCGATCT" ?
**Result** 1.15

**Query** Subsequent entry: "TCTATTAGTTGATTAGGGCAACCAAAACAGCGGA"
**Result** 0.556

**Query** Try this sequence next: "CGAAATAGGTCAGAACAGGACAGTGAAGGATGAT"
**Result** 1.87

**Query** "TGAATGAGGTTATACGATCAGGGAACGTTGCAAA" ?
**Result** 1.48

**Query** Do the same for "GCTAGCAGGCCACTTGGGTCACTCAATGACGGGC" please
**Result** 0.575

**Query** "GGAACGAGGGCTAGTTGATAGCAGAGTTTGATGG" , same question.
**Result** -0.627

**Query** Would you kindly repeat that for "TCTTGTATATCAGCAGGTTAAGAAAGCTGGCCAA" ?
**Result** 0.998

**Query** Quick one: "CGAACTAGGGCAAGGACAGTGAATCTCCGCACGC"
**Result** -0.371

**Query** # iterate: "CAAACTAGGTCACCGGAAGGTCAAAGTGCGCATG"
**Result** 7.59

----------
# Tested on: LXRa:RXRa (NR concentration 270 nM, RXRa partner concentration 90 nM)
# TEST_DETAILS: PBM binding z-score (relative to random genomic background probes); higher = stronger binding; sequences stand for … in GC…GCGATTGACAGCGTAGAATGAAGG
OUTCOME_MEASURE: PBM binding z-score
Reply with just the number.

**Query** Which measured PBM binding z-score value corresponds to "ATACAAAGGTGATCGTGAGGTCGTTGATACTAAC" ?
**Result** 2.6

**Query** Consider next the sequence "TAGCCTGGGTCATGCGGGCCAGTATAGTGTCGGC" in the same way.
**Result** 1.79

**Query** Entry to check: "CCTAGTTAGTCAGGAGGTCACACACCGGATATGA"
**Result** 3.69

**Query** Try the sequence "TCATATAGGTAATACAGGTGAAAATCGGCATCTA"
**Result** 1.37

**Query** Moving on to "TCTAGTTGGTCAAAGCTCACACACTCGAAATGCG"
**Result** 0.551

**Query** Also check "ATCTCTAGGTAACCAAGTTCAGCGAATGCCGAAC"
**Result** 0.886

**Query** Repeat with "ATACCAAGGTGATCATGAGGTCGTTGATACTAAC"
**Result** 1.61

**Query** What do you have for "CCTCGGAGGACAACAGGAGGTCAGAGTTGCCAGA" ?
**Result** 2.05

**Query** Now the same for "CAAACTAGGTCACGAAGGGTCAAAGTCGAATGAC"
**Result** 7.09

**Query** Follow-up item: "GCGACTGCGGCATCAGCAGGTTACCATAACTTAA"
**Result** -0.742

**Query** Another sequence: "GCTGCTAGGTCAGGTAGGTCAGCTAACGGGTACG"
**Result** 1.72

**Query** // repeat for "TCTTGTAGATCCGCAGGTTAAGAAAGCTGGCCAA" and report
**Result** 0.322

**Query** Would you kindly repeat that for "ATGGAAAGGTCGAGGTGAGTATAGAGAAAGGGAA" ?
**Result** 3.47

**Query** Also, "TCGAGTAGGTTATGGGCATTCAGAATGGCGTCGA" please.
**Result** 0.186

**Query** Next sequence: "TAGGCTAGGTCATTCAGGGGCCAGTATAGAAAGC"
**Result** 3.64

**Query** What do you have for "TCTGCTAGGTCAGTTGGTGAGCTAACGAGCTGCC" ?
**Result** 0.467

**Query** Now the same for "CCTACTGGGCCACGAAAGGTCATTGAGTCAGTGA"
**Result** 5.32

**Query** Next up: "CATACAGGGTTAGCTAGGCCAGAGTAGGGACGGC"
**Result** 0.22

**Query** Please give the result for "ACTAGCAAGCCAAGTTTGGGTCACTCAAACAAAG" too.
**Result** -0.258

**Query** Queued: "GCGTGTAGATCAAGGTTAAGAAAGACTAAGCTAA"
**Result** 0.939

**Query** "CAAACTAGGTCAAAGGTCAAAGTGGAGCCAACCA" ?
**Result** 7.01

**Query** Cool, now "TCTAGCAGGCCAGAGGATCACTCAAGAGGTACGG"
**Result** -0.271

**Query** Now consider "CGTCCAAGGTCAAAGGTCAGTGTAGAGATGACGG" .
**Result** 7.04

**Query** Would you kindly repeat that for "GCGACTGGGGCATCAGCAGGTTACCATCACTTAA" ?
**Result** -0.121

**Query** And "TCATATAGGTAAACAGGTGAAAGCCCGTAAGTTA" ?
**Result** 1.13

**Query** Try this sequence too: "TCTAGCAGGCCAGAGGGTCACTAAAGAGGTACGG"
**Result** 0.827

**Query** Repeat for the following sequence: "ATCGAAAGGTCGACGGGGTGAGTATACACCGTTT"
**Result** 3.54

**Query** Now this one: "TCTAGCAGGCCAGAGGGTCACACAAGAGGTACGG"
**Result** 1.66

**Query** Would you kindly repeat that for "CCTCCTGGGCCAAAGGTCATTGATTCCAATGCTC" ?
**Result** 5.11

**Query** Try "TCTTGTAGATCAGCAGGTTAAAAAAGCTGGCCAA" next.
**Result** 0.216

**Query** Same for "TCAGATAGGTAATACAGGTGAAAGTCGGCATCTA"
**Result** 1.41

**Query** // next record "CCGACTGGGGCAAGGTTAGCATAACGCACAGCCA"
**Result** -0.11

**Query** Could you do the same for "GCTTGTAGATCAAGATTAAGAAAGACTAAGCTAA" , please?
**Result** -0.792

**Query** Now consider "TGAATGAGGTTATAAGAACAGGGAACGTTGCAAA" and answer again.
**Result** 1.18
